Measured INHIBITION values are reported for all entries that follow.
Tested on: Plasmodium berghei
test details: Screen against P. berghei liver stage (PbLuc), transformed with Luciferase, at 10uM
Type: functional, HepG2
condition summary: tested at 10 uM
Out of some 69,000 compounds screened, about 8,600 (12%) showed an effect of 50% or more. What follows is part of a selection rich in strong results, with near analogues and random picks from the rest.
Report the figure along with its unit, number first.

See these solved cases before continuing.
| molecule | measured on | result |
| --- | --- | --- |
| COC1C[C@@H]2CN(C(=O)c3[nH]nc4c3CCCC4)C[C@@H]2C1 (some centres not stated) | Plasmodium berghei | 24.8% |
| CC(=O)NCCC1CCCCN1S(=O)(=O)c1cccc(F)c1 (configuration not stated) | Plasmodium berghei | -40.5% |
| O=C(C1=CCCC1)N1CCO[C@H]2[C@@H](Oc3ccccn3)CC[C@@H]21 | Plasmodium berghei | 30.1% |
| CCc1ccc2nc(C)cc(C(=O)N3C[C@H]4CCC[C@@]4(CO)C3)c2c1 | Plasmodium berghei | 25.5% |
| C[C@@H]1CN(C2(C(=O)N3CCOCC3)Cc3ccccc3C2)C[C@H](C)O1 | Plasmodium berghei | 21% |
| CCc1nc(CC(=O)NCC(Cc2ccc(F)cc2)C(N)=O)cs1 (configuration not stated) | Plasmodium berghei | 48.2% |
| c1ccc(Cc2nnc(CN3CCn4c(nnc4C4CC4)C3)o2)cc1 | Plasmodium berghei | 21.5% |
| O=S(=O)(C1CC1)N1CCCn2cnc(COc3cccnc3)c2C1 | Plasmodium berghei | -4.26% |
| Cc1cc(C(=O)N2CCC(n3nc(C)cc3C)C2)c2ccc(F)cc2n1 (configuration not stated) | Plasmodium berghei | 37.3% |
| Cc1cc(C(=O)N2C[C@H]3CCC[C@@]3(CO)C2)c2ccc(F)cc2n1 | Plasmodium berghei | 58.6% |

stdin: Query: INHIBITION; subject: COCCC(=O)NCC(O)c1c(F)cccc1F (configuration not stated)
stdout: -2.92%

stdin: Query: INHIBITION; subject: O=C(c1sccc1Br)N(Cc1cccnc1)C1CC1
stdout: 25.2%

stdin: Query: INHIBITION; subject: CCS(=O)(=O)N1CCC2(CCN(Cc3nccs3)CC2)CC1
stdout: 26.5%

stdin: Query: INHIBITION; subject: CS(=O)(=O)Nc1ccn(Cc2cccc(Cl)c2)n1
stdout: 22.6%

stdin: Query: INHIBITION; subject: Cc1noc(C)c1C(=O)NCCSCc1cccs1
stdout: 29.5%

stdin: Query: INHIBITION; subject: Cc1cncc(C(=O)N2CCO[C@H]3[C@H](Oc4ccccn4)CC[C@@H]32)c1
stdout: 72.9%

stdin: Query: INHIBITION; subject: CCCc1cc(C(=O)N2C[C@H]3CCC[C@@]3(CO)C2)[nH]n1
stdout: 21.9%

stdin: Query: INHIBITION; subject: C[C@@H]1CN(C2(C(=O)N3CCCCCC3)Cc3ccccc3C2)C[C@H](C)O1
stdout: -0.182%

stdin: Query: INHIBITION; subject: Cn1cc(C(=O)OC2CN(c3nc4c(C(F)(F)F)cccc4s3)C2)nn1
stdout: -45.6%

stdin: Query: INHIBITION; subject: CNc1nccnc1C1CN(Cc2ccc(OCC(=O)O)cc2)CCO1 (configuration not stated)
stdout: 26.7%

stdin: Query: INHIBITION; subject: O=C(NCC1CCOC1)c1csc(-c2ccccc2)n1 (configuration not stated)
stdout: -10.6%

stdin: Query: INHIBITION; subject: Cc1ccc2nc(C)cc(C(=O)N3C[C@H]4CCC[C@@]4(CO)C3)c2c1
stdout: 75.7%
